Target: SARS-CoV-2 nsp13 ATPase (Severe acute respiratory syndrome coronavirus 2, UniProt P0DTD1)
Format: biochemical
Conditions: in the presence of the highest concentration of tested compound (30 μM; 3 μM for SSYA10-001)
Quantity: helicase ATPase percentage of control (%)

{"Entry Smiles": "CCCOc1ccc(-c2cc(OCCN3CCc4cc(OC)c(OC)cc4C3)c3c(OC)cc(OC)cc3n2)cc1", "Reported Value": 90}
{"Entry Smiles": "CCCOc1ccc(-c2cc(OCCN3CCCCC3)c3c(OC)ccc(OC)c3n2)cc1", "Reported Value": 100}
{"Entry Smiles": "CCCOc1ccc(-c2cc(OCCN3CCCC3)c3cc(OC)cc(OC)c3n2)cc1", "Reported Value": 100}
{"Entry Smiles": "CCCOc1ccc(-c2cc(OCCN3CCN(Cc4ccccc4)CC3)c3c(OC)cc(OC)cc3n2)cc1", "Reported Value": 96}
